# Test system: PEDV
# RUN_DESCRIPTION: Anti-animal coronavirus activity, viral load by qRT-PCR, PEDV in Vero E6 cells
# Assay type: cell-based
# PROTOCOL_CONDITIONS: Porcine epidemic diarrhea virus, Vero C1008, 48 h, read-out: EC50 for PEDV
OBSERVED_PROPERTY: pEC50
The value called pEC50 is obtained by taking minus log10 of the concentration in mol/L.

Need pEC50 of `CC(C)C(=O)OC[C@H]1O[C@@](C#N)(c2ccc3c(N)ncnn23)[C@H](O)[C@@H]1O` , thanks. 5.98

From: paper PMC12144996
